# Tested on: Feline infectious peritonitis virus
# Type: cell-based
# assay context: CC50/EC50 in Fcwf-4 cells
Structures can show the parent of a compound that is named as a salt.
List of Selectivity index, Feline infectious peritonitis virus values.
quantity kind: Selectivity index, Feline infectious peritonitis virus

[[record]]
compound = "CC[C@@H](C(=O)[C@@H](C)[C@@H](O)[C@H](C)[C@@H]1O[C@@H]([C@@H](CC)C(=O)O)CC[C@@H]1C)[C@H]1O[C@]2(C=C[C@@H](O)[C@]3(CC[C@@](C)([C@H]4CC[C@](O)(CC)[C@H](C)O4)O3)O2)[C@H](C)C[C@@H]1C [Salinomycin]"
value_observed = 0.49

[[record]]
compound = "COC(=O)C[C@](O)(CCCC(C)(C)O)C(=O)O[C@@H]1C(OC)=C[C@]23CCCN2CCc2cc4c(cc2[C@H]13)OCO4 [Homoharringtonine]"
value_observed = 1.58

[[record]]
compound = "CC(C)[C@@H]1NC(=O)[C@H](C)OC(=O)[C@@H](C(C)C)NC(=O)[C@@H](C(C)C)OC(=O)[C@H](C(C)C)NC(=O)[C@H](C)OC(=O)[C@@H](C(C)C)NC(=O)[C@@H](C(C)C)OC(=O)[C@H](C(C)C)NC(=O)[C@H](C)OC(=O)[C@@H](C(C)C)NC(=O)[C@@H](C(C)C)OC1=O [Valinomycin]"
value_observed = 2.45

[[record]]
compound = "O=C(Nc1ccc([N+](=O)[O-])cc1Cl)c1cc(Cl)ccc1O [Niclosamide]"
value_observed = 0.80

[[record]]
compound = "CCN(CC)CCOc1ccc2c(c1)C(=O)c1cc(OCCN(CC)CC)ccc1-2 [Tilorone (dihydrochloride), Tilorone]"
value_observed = 0.84

[[record]]
compound = "CCN(CC)CCCC(C)Nc1ccnc2cc(Cl)ccc12 (stereo not drawn) [Chloroquine (diphosphate), Chloroquine]"
value_observed = 1.35

